Reference source: patent US8618101B2

Experimental System: human CCR-2 (Homo sapiens, UniProt P41597)
Sequence (P41597 1-360 isoform P41597-2): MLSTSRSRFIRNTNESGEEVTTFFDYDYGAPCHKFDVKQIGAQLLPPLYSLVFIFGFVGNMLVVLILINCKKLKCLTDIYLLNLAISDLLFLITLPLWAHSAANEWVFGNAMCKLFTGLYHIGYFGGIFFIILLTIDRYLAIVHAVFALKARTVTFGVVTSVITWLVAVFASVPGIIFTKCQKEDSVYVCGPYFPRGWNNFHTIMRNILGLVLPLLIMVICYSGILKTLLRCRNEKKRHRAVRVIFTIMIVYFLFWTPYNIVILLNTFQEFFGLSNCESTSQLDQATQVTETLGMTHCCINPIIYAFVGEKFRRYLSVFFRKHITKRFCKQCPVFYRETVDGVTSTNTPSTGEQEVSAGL
Protocol Details: Human CCR-2 binding assay with hPBMCs, 125I-human MCP-1 tracer
Settings: average; read-out: average Ki for binding to hCCR-2
Measurement Label: Ki (nM)
Value expressed in nM; do not type the unit.

What value of Ki has been reported for the following molecule? CC(=O)N[C@@H]1C[C@H](NC(C)(C)C)CC[C@@H]1N1CC[C@H](Nc2ncnc3cc(C(C)(C)C)nn23)C1=O [Example 1] 2

###

Experimental System: hERG (Homo sapiens, UniProt Q12809)
Construct: expressed in transfected cells; host or cells: HEK293
Sequence (Q12809 whole entry): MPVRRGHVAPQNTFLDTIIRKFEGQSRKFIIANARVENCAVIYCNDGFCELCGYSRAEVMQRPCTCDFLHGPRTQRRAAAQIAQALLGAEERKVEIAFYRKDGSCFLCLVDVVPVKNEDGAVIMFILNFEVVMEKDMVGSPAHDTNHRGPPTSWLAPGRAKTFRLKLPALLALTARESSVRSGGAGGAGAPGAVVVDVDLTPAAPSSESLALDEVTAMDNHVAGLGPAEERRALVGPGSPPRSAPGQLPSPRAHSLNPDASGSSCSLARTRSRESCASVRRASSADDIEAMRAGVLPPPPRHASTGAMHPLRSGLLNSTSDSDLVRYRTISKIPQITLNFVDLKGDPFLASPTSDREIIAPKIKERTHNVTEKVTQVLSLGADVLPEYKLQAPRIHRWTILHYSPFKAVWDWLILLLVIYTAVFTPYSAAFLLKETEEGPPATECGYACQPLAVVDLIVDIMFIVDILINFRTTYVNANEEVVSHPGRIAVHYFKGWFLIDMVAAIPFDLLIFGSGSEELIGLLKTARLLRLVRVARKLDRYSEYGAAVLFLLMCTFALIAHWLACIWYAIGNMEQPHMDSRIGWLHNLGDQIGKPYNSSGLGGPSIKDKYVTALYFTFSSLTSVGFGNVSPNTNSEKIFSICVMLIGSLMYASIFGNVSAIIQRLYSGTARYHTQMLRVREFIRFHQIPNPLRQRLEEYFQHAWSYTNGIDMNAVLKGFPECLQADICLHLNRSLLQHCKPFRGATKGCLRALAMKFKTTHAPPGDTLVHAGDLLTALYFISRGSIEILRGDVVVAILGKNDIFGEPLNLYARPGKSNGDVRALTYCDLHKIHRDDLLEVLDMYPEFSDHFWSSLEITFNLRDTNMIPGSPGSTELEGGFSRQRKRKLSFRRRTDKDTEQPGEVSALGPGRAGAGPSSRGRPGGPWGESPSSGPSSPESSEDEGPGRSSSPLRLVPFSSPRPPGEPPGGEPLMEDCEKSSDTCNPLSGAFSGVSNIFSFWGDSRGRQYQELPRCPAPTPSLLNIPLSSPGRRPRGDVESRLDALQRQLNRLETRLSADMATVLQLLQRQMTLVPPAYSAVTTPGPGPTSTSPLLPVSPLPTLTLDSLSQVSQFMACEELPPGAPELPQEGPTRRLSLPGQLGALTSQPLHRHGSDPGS
Protocol Details: hERG patch clamp
Format: cell-based
Settings: pH 7.4, 30,000 nM, read-out: hERG patch clamp (% Inhib.)
Measurement Label: inhibition at 30000 nM (%)
Respond numerically; units are % and should not be typed.

Param item = CC(=O)N[C@@H]1C[C@H](NC(C)(C)C)CC[C@@H]1N1CC[C@H](Nc2ncnc3cc(C(C)(C)C)nn23)C1=O [Example 1] ; retrieve measured inhibition at 30000 nM. 9.2

###

Experimental System: CCR-5 (Homo sapiens, UniProt P51681)
Construct: human peripheral T cells was used as a source of CCR-5; endogenous in cells; host or cells: human peripheral T cells from donors pre-screened for high CCR-5 expression
Sequence (P51681 whole entry): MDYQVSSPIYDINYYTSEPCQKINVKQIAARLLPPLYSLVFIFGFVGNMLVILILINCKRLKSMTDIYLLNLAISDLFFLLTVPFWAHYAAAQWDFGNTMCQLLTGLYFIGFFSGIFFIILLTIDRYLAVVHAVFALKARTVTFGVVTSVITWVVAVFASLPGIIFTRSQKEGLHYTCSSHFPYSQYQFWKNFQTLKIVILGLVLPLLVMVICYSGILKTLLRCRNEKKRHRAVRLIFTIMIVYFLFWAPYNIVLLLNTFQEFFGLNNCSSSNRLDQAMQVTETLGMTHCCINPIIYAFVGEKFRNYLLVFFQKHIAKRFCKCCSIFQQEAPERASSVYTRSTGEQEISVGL
Protocol Details: T cell CCR-5 binding assay, 125I-MIP-1β tracer
Settings: human peripheral T cells
Measurement Label: pIC50
Reminder that pIC50 means the negative base-10 logarithm of the concentration expressed in mol/L.

Record lookup: for CCR-5 (Homo sapiens, UniProt P51681), what pIC50 belongs to CC(=O)N[C@@H]1C[C@H](NC(C)(C)C)CC[C@@H]1N1CC[C@H](Nc2ncnc3cc(C(C)(C)C)nn23)C1=O [Example 1] ? 8.44

###

Protocol Details: Single-dose pharmacokinetics in monkeys
Settings: male, cynomolgus monkey, plasma, intravenous, 1 mg/kg
Measurement Label: clearance (L/h/kg)
Report only the number, with the unit L/h/kg understood.

Which clearance is listed for CC(=O)N[C@@H]1C[C@H](NC(C)(C)C)CC[C@@H]1N1CC[C@H](Nc2ncnc3cc(C(C)(C)C)nn23)C1=O [Example 1] ? 0.984

###

Experimental System: human cardiac sodium channel, SCN5A (Homo sapiens, UniProt Q14524)
Construct: expressed in transfected cells; host or cells: HEK-293
Sequence (Q14524 whole entry): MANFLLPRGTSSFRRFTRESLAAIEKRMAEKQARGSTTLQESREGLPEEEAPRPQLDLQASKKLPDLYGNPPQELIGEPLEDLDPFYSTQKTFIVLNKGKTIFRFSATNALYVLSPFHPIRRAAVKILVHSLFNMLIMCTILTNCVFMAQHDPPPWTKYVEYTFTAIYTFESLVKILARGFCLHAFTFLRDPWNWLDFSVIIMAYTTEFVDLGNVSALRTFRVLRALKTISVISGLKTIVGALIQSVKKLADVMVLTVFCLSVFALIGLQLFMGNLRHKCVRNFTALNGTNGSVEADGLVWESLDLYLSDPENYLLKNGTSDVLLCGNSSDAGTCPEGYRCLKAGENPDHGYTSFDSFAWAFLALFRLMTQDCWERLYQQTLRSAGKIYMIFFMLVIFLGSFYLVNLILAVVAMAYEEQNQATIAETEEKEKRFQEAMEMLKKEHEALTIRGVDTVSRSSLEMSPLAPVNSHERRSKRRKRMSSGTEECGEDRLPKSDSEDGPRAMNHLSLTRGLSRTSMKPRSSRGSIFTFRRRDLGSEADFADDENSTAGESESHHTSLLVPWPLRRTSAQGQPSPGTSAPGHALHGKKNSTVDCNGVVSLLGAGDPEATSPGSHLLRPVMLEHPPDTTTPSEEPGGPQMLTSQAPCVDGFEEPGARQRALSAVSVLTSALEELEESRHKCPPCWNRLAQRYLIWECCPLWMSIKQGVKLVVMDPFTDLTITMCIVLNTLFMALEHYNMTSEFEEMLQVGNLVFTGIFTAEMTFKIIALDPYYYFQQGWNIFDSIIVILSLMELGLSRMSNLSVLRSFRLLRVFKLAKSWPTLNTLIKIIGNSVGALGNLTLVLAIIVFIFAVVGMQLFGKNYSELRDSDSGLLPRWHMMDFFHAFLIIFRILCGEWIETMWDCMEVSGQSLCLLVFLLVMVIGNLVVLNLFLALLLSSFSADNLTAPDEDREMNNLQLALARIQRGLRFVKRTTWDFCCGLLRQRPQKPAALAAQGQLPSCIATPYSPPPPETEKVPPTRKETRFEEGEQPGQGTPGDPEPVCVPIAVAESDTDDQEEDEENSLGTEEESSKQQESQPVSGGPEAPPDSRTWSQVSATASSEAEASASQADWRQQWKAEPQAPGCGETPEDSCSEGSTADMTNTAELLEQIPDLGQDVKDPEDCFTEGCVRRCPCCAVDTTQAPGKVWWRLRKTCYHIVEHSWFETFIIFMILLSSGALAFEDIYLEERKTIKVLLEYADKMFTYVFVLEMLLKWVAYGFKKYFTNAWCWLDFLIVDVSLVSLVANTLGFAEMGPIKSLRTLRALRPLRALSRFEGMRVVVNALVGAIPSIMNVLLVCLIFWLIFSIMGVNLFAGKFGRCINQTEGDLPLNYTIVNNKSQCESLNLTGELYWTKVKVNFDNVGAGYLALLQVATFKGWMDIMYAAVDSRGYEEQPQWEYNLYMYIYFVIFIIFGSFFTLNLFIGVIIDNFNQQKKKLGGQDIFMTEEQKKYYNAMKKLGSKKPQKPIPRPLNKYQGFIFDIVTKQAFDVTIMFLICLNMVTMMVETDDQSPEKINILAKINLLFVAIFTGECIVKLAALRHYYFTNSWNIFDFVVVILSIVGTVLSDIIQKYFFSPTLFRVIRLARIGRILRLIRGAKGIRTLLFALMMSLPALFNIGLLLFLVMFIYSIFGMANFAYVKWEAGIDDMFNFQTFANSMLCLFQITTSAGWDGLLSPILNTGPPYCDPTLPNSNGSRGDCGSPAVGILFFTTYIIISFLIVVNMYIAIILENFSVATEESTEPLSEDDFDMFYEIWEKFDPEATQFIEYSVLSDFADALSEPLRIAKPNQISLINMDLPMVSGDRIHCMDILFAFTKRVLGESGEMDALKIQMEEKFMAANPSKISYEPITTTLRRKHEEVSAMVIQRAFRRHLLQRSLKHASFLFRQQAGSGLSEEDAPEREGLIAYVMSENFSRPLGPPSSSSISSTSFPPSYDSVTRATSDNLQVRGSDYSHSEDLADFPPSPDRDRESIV
Protocol Details: Sodium channel patch clamp
Format: cell-based
Settings: 10,000 nM, read-out: Na+ channel patch clamp (% Inhib.)
Measurement Label: inhibition at 10000 nM

Which inhibition at 10000 nM is listed for "CC(=O)N[C@@H]1C[C@H](NC(C)(C)C)CC[C@@H]1N1CC[C@H](Nc2ncnc3cc(C(C)(C)C)nn23)C1=O" ? 15 to 20%

###

Experimental System: human CCR-2 (Homo sapiens, UniProt P41597)
Protocol Details: CCR-2 calcium mobilization, THP-1 cells
Assay type: cell-based
Settings: MCP-1 10 nM, read-out: CCR-2 Ca2+ Flux IC50
Measurement Label: pIC50
Scale for pIC50: -log10 of concentration given in mol/L; no unit attached.

What does the data say about its pIC50? Entry: "CC(=O)N[C@@H]1C[C@H](NC(C)(C)C)CC[C@@H]1N1CC[C@H](Nc2ncnc3cc(C(C)(C)C)nn23)C1=O" 8.54

###

Protocol Details: Plasma levels of Example 1 and mouse MCP-1 in the 48-hour TG peritonitis model
Format: in vivo
Settings: hCCR-2 KI, mouse, oral, 50 mg/kg, read-out: Concentration of free Example 1 in plasma (nM) (fold IC90 CCR-2 binding)
Measurement Label: concentration at 48 h
Answer format reminder: number followed by unit.

Which concentration at 48 h value belongs to "CC(=O)N[C@@H]1C[C@H](NC(C)(C)C)CC[C@@H]1N1CC[C@H](Nc2ncnc3cc(C(C)(C)C)nn23)C1=O" ? 16.6 nM

###

Protocol Details: Plasma levels of Example 1 and mouse MCP-1 in the 48-hour TG peritonitis model
Format: in vivo
Settings: hCCR-2 KI, mouse, oral, 10 mg/kg, read-out: Concentration of free Example 1 in plasma (nM) (fold IC90 CCR-2 binding)
Measurement Label: concentration at 48 h (nM)
Quick reminder: number only, in nM, skip the unit.

For the compound shown here, "CC(=O)N[C@@H]1C[C@H](NC(C)(C)C)CC[C@@H]1N1CC[C@H](Nc2ncnc3cc(C(C)(C)C)nn23)C1=O" , give the reported concentration at 48 h. 1.9

###

Experimental System: CCR-2 (Homo sapiens, UniProt P41597)
Sequence (P41597 whole entry): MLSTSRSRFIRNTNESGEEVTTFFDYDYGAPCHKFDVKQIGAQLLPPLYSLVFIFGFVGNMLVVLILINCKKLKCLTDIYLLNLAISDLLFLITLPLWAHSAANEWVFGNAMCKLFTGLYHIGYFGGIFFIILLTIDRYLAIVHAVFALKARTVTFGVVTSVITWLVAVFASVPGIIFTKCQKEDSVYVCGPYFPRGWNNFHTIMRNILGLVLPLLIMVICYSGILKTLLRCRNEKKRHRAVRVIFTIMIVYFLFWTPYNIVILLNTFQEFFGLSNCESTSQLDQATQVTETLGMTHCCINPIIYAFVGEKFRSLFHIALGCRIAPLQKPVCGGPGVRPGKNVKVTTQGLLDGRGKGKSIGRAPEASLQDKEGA
Protocol Details: CCR-2 GTP-γS exchange, HT1080 membranes
Format: biochemical
Settings: 1 nM MCP-1
Measurement Label: pIC50
Units for pIC50: none; it is -log10 of a concentration expressed in mol/L.

Dear colleague, I am looking for the recorded pIC50 of the following compound: "CC(=O)N[C@@H]1C[C@H](NC(C)(C)C)CC[C@@H]1N1CC[C@H](Nc2ncnc3cc(C(C)(C)C)nn23)C1=O" 8.46

###

Protocol Details: Single-dose pharmacokinetics in monkeys
Settings: male, cynomolgus monkey, in vivo, 1 mg/kg
Measurement Label: bioavailability (%)
Respond with the bare value in %.

Given the compound "CC(=O)N[C@@H]1C[C@H](NC(C)(C)C)CC[C@@H]1N1CC[C@H](Nc2ncnc3cc(C(C)(C)C)nn23)C1=O" , what is its reported bioavailability? 63

###

Protocol Details: Parallel Artificial Membrane Permeability Assay (PAMPA)
Type: in vitro ADME
Settings: pH 7.4
Measurement Label: Papp at 4 h, 100 µM (×10⁻⁶ cm/s)
Give your result in ×10⁻⁶ cm/s as a bare value.

Can you look up the measured Papp at 4 h, 100 µM of "CC(=O)N[C@@H]1C[C@H](NC(C)(C)C)CC[C@@H]1N1CC[C@H](Nc2ncnc3cc(C(C)(C)C)nn23)C1=O" for me? 33.6

###

Experimental System: CCR-5 (Homo sapiens, UniProt P51681)
Construct: human peripheral T cells was used as a source of CCR-5; endogenous in cells; host or cells: human peripheral T cells from donors pre-screened for high CCR-5 expression
Protocol Details: CCR-5 chemotaxis, MIP-1β-induced, peripheral T cells
Type: cell-based
Measurement Label: IC50

Which IC50 value belongs to CC(=O)N[C@@H]1C[C@H](NC(C)(C)C)CC[C@@H]1N1CC[C@H](Nc2ncnc3cc(C(C)(C)C)nn23)C1=O [Example 1] ? 1.1 nM

###

Protocol Details: Single-dose pharmacokinetics in rats
Settings: male, Sprague-Dawley, rat, plasma, oral, 10 mg/kg
Measurement Label: AUC (µM·h)
Reply numerically in µM·h, unit not repeated.

Return reported AUC; argument: "CC(=O)N[C@@H]1C[C@H](NC(C)(C)C)CC[C@@H]1N1CC[C@H](Nc2ncnc3cc(C(C)(C)C)nn23)C1=O" 6.5

###

Protocol Details: Single-dose pharmacokinetics in rats
Settings: male, Sprague-Dawley, rat, in vivo, 10 mg/kg
Measurement Label: bioavailability
Record the result as a number with its unit.

What measured bioavailability goes with "CC(=O)N[C@@H]1C[C@H](NC(C)(C)C)CC[C@@H]1N1CC[C@H](Nc2ncnc3cc(C(C)(C)C)nn23)C1=O" ? 94%

###

Experimental System: human cardiac sodium channel, SCN5A (Homo sapiens)
Construct: expressed in transfected cells; host or cells: HEK-293
Protocol Details: Sodium channel patch clamp
Assay type: cell-based
Settings: 30,000 nM, read-out: Na+ channel patch clamp (% Inhib.)
Description: Whole-cell patch-clamp was used to directly measure inward sodium currents in HEK-293 cells expressing the human cardiac sodium channel, SCN5A. The compound was tested at a protein-free aqueous buffer. […] Effects were calculated by measuring inhibition of peak current during the test pulse to −20 mV. Rate-dependence of inhibition was assessed by stimulation at frequencies of 1 Hz and 4 Hz.
Measurement Label: inhibition at 30000 nM

Recorded inhibition at 30000 nM for "CC(=O)N[C@@H]1C[C@H](NC(C)(C)C)CC[C@@H]1N1CC[C@H](Nc2ncnc3cc(C(C)(C)C)nn23)C1=O" , please? 13 to 16%

###

Protocol Details: Single-dose pharmacokinetics in monkeys
Settings: male, cynomolgus monkey, plasma, oral, 1 mg/kg
Measurement Label: AUC (µM·h)
State the answer as a number, implicitly in µM·h.

Given the compound "CC(=O)N[C@@H]1C[C@H](NC(C)(C)C)CC[C@@H]1N1CC[C@H](Nc2ncnc3cc(C(C)(C)C)nn23)C1=O" , what is its reported AUC? 1.3

###

Experimental System: hERG (Homo sapiens, UniProt Q12809)
Construct: expressed in transfected cells; host or cells: HEK293
Protocol Details: hERG patch clamp
Type: cell-based
Settings: pH 7.4, 10,000 nM, read-out: hERG patch clamp (% Inhib.)
Measurement Label: inhibition at 10000 nM (%)
Numbers only; they are read as %.

Kindly state the measured inhibition at 10000 nM obtained for "CC(=O)N[C@@H]1C[C@H](NC(C)(C)C)CC[C@@H]1N1CC[C@H](Nc2ncnc3cc(C(C)(C)C)nn23)C1=O" with hERG (Homo sapiens, UniProt Q12809). 1.2
